- system.tested: OE19 (3A1) (Homo sapiens, UniProt P30838)
- Sequence (P30838 whole entry): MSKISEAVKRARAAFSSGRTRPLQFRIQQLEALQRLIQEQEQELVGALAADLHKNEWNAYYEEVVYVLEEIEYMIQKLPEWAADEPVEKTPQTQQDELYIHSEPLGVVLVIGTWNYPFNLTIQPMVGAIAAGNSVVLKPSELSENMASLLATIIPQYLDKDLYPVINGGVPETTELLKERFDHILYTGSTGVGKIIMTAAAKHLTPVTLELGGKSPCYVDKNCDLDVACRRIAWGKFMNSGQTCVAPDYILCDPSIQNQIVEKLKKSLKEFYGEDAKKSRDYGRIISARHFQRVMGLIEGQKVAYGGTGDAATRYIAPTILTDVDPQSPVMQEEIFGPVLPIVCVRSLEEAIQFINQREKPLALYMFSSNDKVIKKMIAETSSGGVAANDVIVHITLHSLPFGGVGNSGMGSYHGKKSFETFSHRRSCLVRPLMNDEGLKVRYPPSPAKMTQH
- experiment: Cellular ALDEFLUOR assay in OE19 cells (preferential ALDH3A1 expression)
- run.conditions: cellular IC50 (Aldefluor), OE19 cells
experimental.readout: pIC50
As a rule, pIC50 stands for the negative log10 of the concentration, concentration in M.

Reported pIC50 of Cc1cccc(CNC(=O)c2csc(N3CCN(c4cccc(C(F)(F)F)c4)CC3)n2)c1 : 5.50

* * *

- system.tested: UniProt P30838
- experiment: ALDH3A1 biochemical assay (benzaldehyde/NADP+, diaphorase-resazurin readout, 1,536-well)
I'd appreciate it if you could supply log10 of AC50 values for the items below.
Parameter value (number): base-10 log of AC50 in nM.

Notebook: CCc1ccc(N2CCN(c3nc(C(=O)NCc4cccc(C)c4)cs3)CC2)cc1Cl , log10 of AC50 read as 2.76

Value of measured log10 of AC50 for the entry Cc1ccc2nc(CN3CCC(c4cccc(C#N)c4)CC3)cc(O)c2c1 : 3.65

The measured log10 of AC50 associated with CCCNC(=O)N1CC(Oc2ccc(-c3nc(C)no3)cc2)C1 reads 4.50

Value of measured log10 of AC50 for the entry CCOc1ccc(C(=O)NC2CCN(c3cc(-c4ccc(OC)cc4)n[nH]3)C2)cc1OCC (stereo not shown) : 3.40

# log10 of AC50 of COc1ccc(N2CCN(c3nc(C(=O)NCc4cccc(C)c4)cs3)CC2)cc1OC = 3.81

Entry Cc1ccc(C)n1-c1ccc(CNC(=O)c2csc(N3CCN(c4cccc(C(F)(F)F)c4)CC3)n2)cc1 ; log10 of AC50 = 4.20

log10 of AC50 measured on COc1c(F)cc(N2CCN(c3nc(C(=O)NCc4cccc(C)c4)cs3)CC2)cc1F = 2.76

// log10 of AC50 value for COc1ccc(CCC(=O)N2CCc3[nH]c(=O)c(C#N)cc3C2)c(OC)c1OC : 4.55

Memo: Cc1cccc(CNC(=O)c2csc(N3CCN(c4ccc([S+](=O)([O-])F)cc4)CC3)n2)c1 , reported log10 of AC50: 3.06

log10 of AC50 in this record for COc1ccc(CN2C[C@@H](F)[C@@H](OCc3nc4cnccc4[nH]3)C2)cc1 : 4.20

What the record says about COc1ccc(N2CCN(c3nc(C(=O)NC4CC4)cs3)CC2)cc1 : log10 of AC50 is 2.04

Documented log10 of AC50 of O=C(NCc1cc(F)cc(Br)c1)c1csc(N2CCN(c3cccc(C(F)(F)F)c3)CC2)n1 : 0.56

Per the record, Cc1cccc(CNC(=O)c2csc(N3CCN(c4cccc(C#N)c4)CC3)n2)c1 has log10 of AC50 of 3.01

Please fill in: log10 of AC50 reported for Cc1cccc(CNC(=O)c2csc(N3CCN(c4ncccc4C(F)(F)F)CC3)n2)c1 = 3.01

Reported log10 of AC50 ( Cc1cccc(CNC(=O)c2csc(N3CCN(c4ccc(C5(C#N)CCCC5)cc4)CC3)n2)c1 ) = 3.01

Reported log10 of AC50 ( COc1ccc(N2CCN(c3nc(C(=O)NCc4ccccc4C)cs3)CC2)cc1 ) = 3.55

GET /value?item= Cc1cccc(CNC(=O)c2csc(N3CCN(c4ccccc4Cl)CC3)n2)c1 &field=log10 of AC50 returns 2.96

Note to self: log10 of AC50 recorded for O=C(Nc1ccc(CNC(=O)c2csc(N3CCN(c4cccc(C(F)(F)F)c4)CC3)n2)cc1)c1ccc(F)cc1 was 2.55

For reference, reported log10 of AC50 for O=C(NCc1ccc(SC(F)(F)F)cc1)c1csc(N2CCN(c3cccc(C(F)(F)F)c3)CC2)n1 stands at 1.40

The molecule listed as O=C(NCc1ccc2c(c1)COC2=O)c1csc(N2CCN(c3cccc(C(F)(F)F)c3)CC2)n1 has a reported log10 of AC50 of 1.60

log10 of AC50 in this record for O=C(NCc1ccc2ccccc2c1)c1csc(N2CCN(c3cccc(C(F)(F)F)c3)CC2)n1 : 1.08

molecule Cc1cccc(CNC(=O)c2csc(N3CCN(c4cccc(OCc5ccc(Cl)cc5)c4)CC3)n2)c1 , log10 of AC50 observed: 2.66

Recorded result, O=C(NC1CC1)c1ccc(CNC(=O)c2csc(N3CCN(c4cccc(C(F)(F)F)c4)CC3)n2)cc1 , log10 of AC50: 3.20

log10 of AC50 for O=C(Nc1ccc2c(c1)OCCO2)N1CCC(Cc2nnc(-c3ccncc3)[nH]2)C1 (stereo not shown) is 3.75

molecule O=C(NCc1ccc(C#CC2CC2)cc1)c1csc(N2CCN(c3cccc(C(F)(F)F)c3)CC2)n1 , log10 of AC50 observed: 1.15

Per the records, this molecule ( CC(=O)Nc1cccc(-c2cc(C(=O)NCc3cnn(C)c3)c3c(c2)N(C)CCO3)c1 ) has log10 of AC50 equal to 4.45

The reported value for O=C(NCc1ccc(Br)c(C(F)(F)F)c1)c1csc(N2CCN(c3cccc(C(F)(F)F)c3)CC2)n1 in terms of log10 of AC50 is 1.05

Recorded result, COc1ccc(-n2nc(C)c([C@@H]3C=C[C@@H](NCc4ccccc4)C3)c2C)cc1 , log10 of AC50: 4.40

The measured log10 of AC50 associated with O=C(NCc1cccc(COc2ccccc2)c1)c1csc(N2CCN(c3cccc(C(F)(F)F)c3)CC2)n1 reads 1.15

Record Cc1cccc(CNC(=O)c2csc(N3CCN(c4ccc(OCCF)cc4)CC3)n2)c1 . Reported log10 of AC50: 3.51

Item: Cc1cccc(CNC(=O)c2csc(N3CCN(c4cccc(OCc5ccccc5C)c4)CC3)n2)c1 | log10 of AC50: 2.56
